E. coli (Gram-negative) data, read-out MIC
Readout: MIC

[[record]]
structure_as_smiles = "O=C(COc1ccccc1O)NNC(=O)c1ccc(-n2cccc2)cc1"
target = "E. coli (Gram-negative)"
readout = "MIC"
result = "3.12 mg/L"

[[record]]
structure_as_smiles = "Cc1ccc(OCC(=O)NNC(=O)c2ccc(-n3cccc3)cc2)cc1"
target = "E. coli (Gram-negative)"
readout = "MIC"
result = "6.25 mg/L"

[[record]]
structure_as_smiles = "Cc1cc(C)cc(OCC(=O)NNC(=O)c2ccc(-n3cccc3)cc2)c1"
target = "E. coli (Gram-negative)"
readout = "MIC"
result = "3.12 mg/L"

